System: M. morganii DY-1
measurementNotes: MIC by agar dilution, M. morganii DY-1
Type: cell-based
runConditions: Morganella morganii, DY1, 17 h; M. morganii DY-1; agar dilution, Mueller-Hinton agar; read-out: Minimal Inhibitory Concentration (MIC)
assayMetric: MIC (µg/mL)

Q: Return reported MIC; argument: CC(C)(ON=C(C(=O)NC1C(=O)N2C(C(=O)[O-])=C(C[n+]3ccn4cccc4c3)CSC12)c1csc(N)n1)C(=O)O (stereo not shown)
Ans: 0.05

Q: Return reported MIC; argument: `CCO/N=C(\C(=O)N[C@@H]1C(=O)N2C(C(=O)[O-])=C(C[n+]3cc(CC)n4cccc4c3)CS[C@H]12)c1csc(N)n1`
Ans: 0.05

Q: Return reported MIC; argument: CON=C(C(=O)NC1C(=O)N2C(C(=O)[O-])=C(C[n+]3ccn4c(C=O)ccc4c3)CSC12)c1csc(N)n1 (stereo not shown)
Ans: 0.05

Q: Return reported MIC; argument: `CO/N=C(\C(=O)N[C@@H]1C(=O)N2C(C(=O)[O-])=C(C[n+]3ccn4c(C#N)ccc4c3C)CS[C@H]12)c1csc(N)n1`
Ans: 0.05

[A] CO/N=C(\C(=O)N[C@@H]1C(=O)N2C(C(=O)[O-])=C(C[n+]3ccn4cccc4c3)CS[C@H]12)c1nc(N)sc1Cl
[B] CON=C(C(=O)NC1C(=O)N2C(C(=O)[O-])=C(C[n+]3ccn4c(SCCO)ccc4c3)CSC12)c1csc(N)n1 (stereo not shown)
Q: Field: lower recorded MIC (choose A or B ) Answer format: the label of the selected item.
Ans: B
(B: 0.025 µg/mL, A: 0.05 µg/mL)

Origin of measurements: patent US5593984A
